Each recorded value in this set is attributed to patent US9540392B2.

- measurement target: human full-length MKNK1 (Homo sapiens, UniProt Q9BUB5, T385D)
- Construct: GST (N); purchased Carna Biosciences 02-145; host or cells: insect cells (baculovirus expression system)
- Sequence (Q9BUB5 1-424 isoform Q9BUB5-2 T344D): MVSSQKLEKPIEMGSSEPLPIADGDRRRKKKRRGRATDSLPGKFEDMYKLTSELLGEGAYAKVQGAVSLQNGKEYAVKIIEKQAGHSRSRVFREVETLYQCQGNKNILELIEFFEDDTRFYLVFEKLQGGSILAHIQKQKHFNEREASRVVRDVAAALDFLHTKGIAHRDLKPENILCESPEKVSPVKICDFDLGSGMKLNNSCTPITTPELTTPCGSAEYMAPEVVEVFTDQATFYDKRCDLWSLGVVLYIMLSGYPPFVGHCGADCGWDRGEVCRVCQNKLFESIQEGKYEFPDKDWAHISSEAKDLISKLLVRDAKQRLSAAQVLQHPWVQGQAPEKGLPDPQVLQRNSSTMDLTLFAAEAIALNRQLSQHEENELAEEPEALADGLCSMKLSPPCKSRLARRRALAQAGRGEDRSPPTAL
- assay info: MKNK1 kinase high ATP assay (TR-FRET)
- Format: biochemical

>  <compound>
COc1cc2[nH]ncc2cc1Nc1ncnc2sc3c(c12)CCC(C(=O)N1CCC(=O)CC1)C3 (racemic)

>  <IC50 [pM]>
600

$$$$
>  <compound>
CCOc1cc2[nH]ncc2cc1Nc1ncnc2sc3c(c12)CCC(C(=O)N1CCC(=O)CC1)C3 (racemic)

>  <IC50 [pM]>
500

$$$$
